Entries and their GI50 values follow.
system: ACHN; assay: NCI tumour cell line growth inhibition, 48 h
Active and inactive are the calls of the source. No stated cut-off is given here; in the data, active = GI50 up to about 1.1 µM and inactive = higher.

                       molecule              result
0  Cc1ccc(/C=C/C(=O)CCN(C)C)cc1  18.5 µM (inactive)

Sample CCC(C#N)NC(=O)NC(C#N)CC (stereo not given) ; GI50 observed: > 100 µM (inactive)

GI50 for COC(=O)[C@H](Cc1c[nH]c2ccccc12)NC(=O)c1ccc(CNC(=O)/C(C)=C/c2ccccc2)cc1 is 52.5 µM (inactive)

Quick note, GI50 for O=C1C(Cl)=C(N[C@@H](Cc2ccccc2)C(=O)OCc2ccccc2)C(=O)c2c(O)ccc(O)c21 landed at 4.05 µM (inactive)
